Biological target: T1, IL1RAP (Mus musculus (Mouse), UniProt Q61730)
T1 chain: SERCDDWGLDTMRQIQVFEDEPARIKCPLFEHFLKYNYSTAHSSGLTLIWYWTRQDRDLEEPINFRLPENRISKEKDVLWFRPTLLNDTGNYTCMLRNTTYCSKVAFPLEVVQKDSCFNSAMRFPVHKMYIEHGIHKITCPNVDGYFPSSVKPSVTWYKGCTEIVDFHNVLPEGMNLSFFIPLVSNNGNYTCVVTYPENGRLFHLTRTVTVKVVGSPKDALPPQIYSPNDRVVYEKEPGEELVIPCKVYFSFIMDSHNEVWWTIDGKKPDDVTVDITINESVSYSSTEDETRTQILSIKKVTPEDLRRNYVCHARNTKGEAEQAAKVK
Assay: SPR equilibrium 25C, PTPRD Ig1-Fn1 analyte
Measured Kd accompanies every entry in the list below.

binder: PTPRD_A9B0 (protein) ETPPRFTRTPVDQTGVSGGVASFICQATGDPRPKIVWNKKGKKVSNQRFEVIEFDDGSGSVLRIQPLRTPRDEAIYECVASNNVGEISVSTRLTVLREDQIPRGFPTIDMGPQLKVVERTRTATMLCAASGNPDPEITWFKDFLPVDTSNNNGRIKQLRSESIGGTPIRGALQIEQSEESDQGKYECVATNSAGTRYSAPANLYVRVRRVPPRFSIPPTNHEIMPGGSVNITCVAVGSPMPYVKWMLGAEDLTPEDDMPIGRNVLELNDVRQSANYTCVAMSTLGVIEAIAQITVKA
Kd: 2 µM

binder: PTPRD_A0B1 (protein) ETPPRFTRTPVDQTGVSGGVASFICQATGDPRPKIVWNKKGKKVSNQRFEVIEFDDGSGSVLRIQPLRTPRDEAIYECVASNNVGEISVSTRLTVLREDQIPRGFPTIDMGPQLKVVERTRTATMLCAASGNPDPEITWFKDFLPVDTSNNNGRIKQLRSGALQIEQSEESDQGKYECVATNSAGTRYSAPANLYVRELREVRRVPPRFSIPPTNHEIMPGGSVNITCVAVGSPMPYVKWMLGAEDLTPEDDMPIGRNVLELNDVRQSANYTCVAMSTLGVIEAIAQITVKA
Kd: 2.2 µM

binder: PTPRD_A0B0 (protein) ETPPRFTRTPVDQTGVSGGVASFICQATGDPRPKIVWNKKGKKVSNQRFEVIEFDDGSGSVLRIQPLRTPRDEAIYECVASNNVGEISVSTRLTVLREDQIPRGFPTIDMGPQLKVVERTRTATMLCAASGNPDPEITWFKDFLPVDTSNNNGRIKQLRSGALQIEQSEESDQGKYECVATNSAGTRYSAPANLYVRVRRVPPRFSIPPTNHEIMPGGSVNITCVAVGSPMPYVKWMLGAEDLTPEDDMPIGRNVLELNDVRQSANYTCVAMSTLGVIEAIAQITVKA
Kd: 2.4 µM

binder: PTPRD_A3B0 (protein) ETPPRFTRTPVDQTGVSGGVASFICQATGDPRPKIVWNKKGKKVSNQRFEVIEFDDGSGSVLRIQPLRTPRDEAIYECVASNNVGEISVSTRLTVLREDQIPRGFPTIDMGPQLKVVERTRTATMLCAASGNPDPEITWFKDFLPVDTSNNNGRIKQLRSESIGALQIEQSEESDQGKYECVATNSAGTRYSAPANLYVRVRRVPPRFSIPPTNHEIMPGGSVNITCVAVGSPMPYVKWMLGAEDLTPEDDMPIGRNVLELNDVRQSANYTCVAMSTLGVIEAIAQITVKA
Kd: 2.8 µM
